Listed binders paired with reported interaction score
Target: T1, O5-bP
T1 chain: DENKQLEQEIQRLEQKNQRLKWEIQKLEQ
Assay: two-hybrid library CCNG1;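 also: natural log of median RNA to DNA barcode read ratio; higher means stronger binding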
parameter: interaction score

>  <binder>
DENKQLEQEIQRLEQKNQRLKWEIQKLEQ [O5-bP]

>  <reported.result>
-1.57

$$$$
>  <binder>
DKNQELEKKIEELERKIWELEKENQELKR [4H3364-bH]

>  <reported.result>
0.546

$$$$
>  <binder>
DEIKQLEQKIQRLKQENQRLEWENQKLEQ [O3-bP]

>  <reported.result>
-1.53

$$$$
>  <binder>
DEIAQLKQKIAELKQKNAELEWENAQLEQ [4H883-bA]

>  <reported.result>
-1.74

$$$$
>  <binder>
DEIKQLEQKIQRLKQKNQRLKWKNQKLKQ [O12-bP]

>  <reported.result>
-0.621

$$$$
>  <binder>
DENKQLEQEIQRLEQENQRLEWKIQKLKQ [O14-bP]

>  <reported.result>
1.11

$$$$
>  <binder>
DKIKQLKQKNQRLKQEIQRLEWKNQKLKQ [O16-bP]

>  <reported.result>
-0.672

$$$$
